- measurement.target: T1, ST2 on the effector cells (KU812, KU812/NF-κB-1#, HUVEC, HMC-1) (human, UniProt Q01638 19-556)
- T1 sequence (looked up): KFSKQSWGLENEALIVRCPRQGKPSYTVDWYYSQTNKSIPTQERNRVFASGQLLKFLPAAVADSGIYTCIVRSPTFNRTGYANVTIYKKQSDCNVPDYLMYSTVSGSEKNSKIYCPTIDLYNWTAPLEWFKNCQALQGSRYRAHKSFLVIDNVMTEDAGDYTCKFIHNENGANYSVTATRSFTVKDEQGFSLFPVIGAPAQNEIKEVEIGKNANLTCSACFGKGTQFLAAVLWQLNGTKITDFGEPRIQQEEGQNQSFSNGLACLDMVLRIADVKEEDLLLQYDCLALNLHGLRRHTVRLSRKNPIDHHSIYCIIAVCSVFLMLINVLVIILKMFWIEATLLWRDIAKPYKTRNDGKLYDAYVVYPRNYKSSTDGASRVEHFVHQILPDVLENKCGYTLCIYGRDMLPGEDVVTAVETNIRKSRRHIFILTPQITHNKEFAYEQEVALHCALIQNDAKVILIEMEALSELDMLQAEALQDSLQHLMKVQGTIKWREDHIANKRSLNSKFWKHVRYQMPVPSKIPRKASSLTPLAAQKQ
- test.description: cell-based or functional assay
quantity.measured: Maximum inhibition rate, KU812-IL5 production by oxidized IL33 (%)
The response must be a number in % with no trailing unit.

Prompt: Quick one: Maximum inhibition rate, KU812-IL5 production by oxidized IL33 for 5886-156-H1L0 (antibody, human IgG4 S228P, kappa, V domains shown, Humanized antibody expressed in CHO-K1, purified by protein A) VH: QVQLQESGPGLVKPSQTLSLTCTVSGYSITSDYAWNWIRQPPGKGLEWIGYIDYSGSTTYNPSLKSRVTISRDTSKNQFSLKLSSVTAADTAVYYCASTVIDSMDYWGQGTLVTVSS VL: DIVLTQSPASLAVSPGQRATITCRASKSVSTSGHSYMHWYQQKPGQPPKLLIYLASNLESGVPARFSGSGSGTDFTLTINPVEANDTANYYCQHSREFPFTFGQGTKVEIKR ?
Completion: 101

Prompt: Do the same for 5888-379-H2L1 (antibody, human IgG4 S228P, kappa, V domains shown, Humanized antibody) VH: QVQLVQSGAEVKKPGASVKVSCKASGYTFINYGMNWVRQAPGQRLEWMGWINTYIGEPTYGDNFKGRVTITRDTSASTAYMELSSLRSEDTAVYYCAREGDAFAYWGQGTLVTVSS VL: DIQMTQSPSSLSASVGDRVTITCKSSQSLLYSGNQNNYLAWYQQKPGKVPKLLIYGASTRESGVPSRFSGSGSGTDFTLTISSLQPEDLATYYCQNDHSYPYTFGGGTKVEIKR please
Completion: 101

Prompt: Proceed to Control antibody CNTO7160 (antibody, human IgG4 S228P, kappa, V domains shown, Known anti-ST2 control antibody) VH: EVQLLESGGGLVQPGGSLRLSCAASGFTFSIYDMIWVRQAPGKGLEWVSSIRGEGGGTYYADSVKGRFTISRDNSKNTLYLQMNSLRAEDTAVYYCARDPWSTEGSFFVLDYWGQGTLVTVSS VL: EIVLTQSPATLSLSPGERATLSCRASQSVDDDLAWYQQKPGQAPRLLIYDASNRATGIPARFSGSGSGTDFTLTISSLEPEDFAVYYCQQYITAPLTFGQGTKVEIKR
Completion: 98.9

Prompt: Then this binder: 5888-153-H3L1 (antibody, human IgG4 S228P, kappa, V domains shown, Humanized antibody) VH: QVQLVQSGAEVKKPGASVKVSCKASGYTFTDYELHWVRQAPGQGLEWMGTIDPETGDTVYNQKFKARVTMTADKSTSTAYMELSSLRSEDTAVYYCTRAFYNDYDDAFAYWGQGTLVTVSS VL: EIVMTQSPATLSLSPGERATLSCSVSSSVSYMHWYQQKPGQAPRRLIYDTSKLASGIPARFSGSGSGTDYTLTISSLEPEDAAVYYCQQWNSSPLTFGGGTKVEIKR
Completion: 101

Prompt: And then 5888-153-H0L1 (antibody, human IgG4 S228P, kappa, V domains shown, Humanized antibody) VH: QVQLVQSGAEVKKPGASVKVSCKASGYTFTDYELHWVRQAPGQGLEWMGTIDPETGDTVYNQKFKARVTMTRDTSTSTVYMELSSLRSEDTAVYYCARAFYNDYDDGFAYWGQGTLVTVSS VL: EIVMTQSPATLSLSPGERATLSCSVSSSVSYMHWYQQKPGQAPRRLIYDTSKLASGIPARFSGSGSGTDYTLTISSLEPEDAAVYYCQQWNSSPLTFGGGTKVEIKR , what is it?
Completion: 101

Prompt: Try 5888-116-H0L1 (antibody, human IgG4 S228P, kappa, V domains shown, Humanized antibody) VH: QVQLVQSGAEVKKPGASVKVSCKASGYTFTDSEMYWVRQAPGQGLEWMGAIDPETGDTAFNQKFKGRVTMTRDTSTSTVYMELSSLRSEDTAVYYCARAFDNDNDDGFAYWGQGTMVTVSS VL: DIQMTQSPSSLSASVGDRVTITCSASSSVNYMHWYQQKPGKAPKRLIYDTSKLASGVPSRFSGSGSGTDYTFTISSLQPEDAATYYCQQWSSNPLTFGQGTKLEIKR next.
Completion: 102
